Biological target: human ACC2 (Homo sapiens (Human), UniProt O00763)
Sequence (O00763 129-2458): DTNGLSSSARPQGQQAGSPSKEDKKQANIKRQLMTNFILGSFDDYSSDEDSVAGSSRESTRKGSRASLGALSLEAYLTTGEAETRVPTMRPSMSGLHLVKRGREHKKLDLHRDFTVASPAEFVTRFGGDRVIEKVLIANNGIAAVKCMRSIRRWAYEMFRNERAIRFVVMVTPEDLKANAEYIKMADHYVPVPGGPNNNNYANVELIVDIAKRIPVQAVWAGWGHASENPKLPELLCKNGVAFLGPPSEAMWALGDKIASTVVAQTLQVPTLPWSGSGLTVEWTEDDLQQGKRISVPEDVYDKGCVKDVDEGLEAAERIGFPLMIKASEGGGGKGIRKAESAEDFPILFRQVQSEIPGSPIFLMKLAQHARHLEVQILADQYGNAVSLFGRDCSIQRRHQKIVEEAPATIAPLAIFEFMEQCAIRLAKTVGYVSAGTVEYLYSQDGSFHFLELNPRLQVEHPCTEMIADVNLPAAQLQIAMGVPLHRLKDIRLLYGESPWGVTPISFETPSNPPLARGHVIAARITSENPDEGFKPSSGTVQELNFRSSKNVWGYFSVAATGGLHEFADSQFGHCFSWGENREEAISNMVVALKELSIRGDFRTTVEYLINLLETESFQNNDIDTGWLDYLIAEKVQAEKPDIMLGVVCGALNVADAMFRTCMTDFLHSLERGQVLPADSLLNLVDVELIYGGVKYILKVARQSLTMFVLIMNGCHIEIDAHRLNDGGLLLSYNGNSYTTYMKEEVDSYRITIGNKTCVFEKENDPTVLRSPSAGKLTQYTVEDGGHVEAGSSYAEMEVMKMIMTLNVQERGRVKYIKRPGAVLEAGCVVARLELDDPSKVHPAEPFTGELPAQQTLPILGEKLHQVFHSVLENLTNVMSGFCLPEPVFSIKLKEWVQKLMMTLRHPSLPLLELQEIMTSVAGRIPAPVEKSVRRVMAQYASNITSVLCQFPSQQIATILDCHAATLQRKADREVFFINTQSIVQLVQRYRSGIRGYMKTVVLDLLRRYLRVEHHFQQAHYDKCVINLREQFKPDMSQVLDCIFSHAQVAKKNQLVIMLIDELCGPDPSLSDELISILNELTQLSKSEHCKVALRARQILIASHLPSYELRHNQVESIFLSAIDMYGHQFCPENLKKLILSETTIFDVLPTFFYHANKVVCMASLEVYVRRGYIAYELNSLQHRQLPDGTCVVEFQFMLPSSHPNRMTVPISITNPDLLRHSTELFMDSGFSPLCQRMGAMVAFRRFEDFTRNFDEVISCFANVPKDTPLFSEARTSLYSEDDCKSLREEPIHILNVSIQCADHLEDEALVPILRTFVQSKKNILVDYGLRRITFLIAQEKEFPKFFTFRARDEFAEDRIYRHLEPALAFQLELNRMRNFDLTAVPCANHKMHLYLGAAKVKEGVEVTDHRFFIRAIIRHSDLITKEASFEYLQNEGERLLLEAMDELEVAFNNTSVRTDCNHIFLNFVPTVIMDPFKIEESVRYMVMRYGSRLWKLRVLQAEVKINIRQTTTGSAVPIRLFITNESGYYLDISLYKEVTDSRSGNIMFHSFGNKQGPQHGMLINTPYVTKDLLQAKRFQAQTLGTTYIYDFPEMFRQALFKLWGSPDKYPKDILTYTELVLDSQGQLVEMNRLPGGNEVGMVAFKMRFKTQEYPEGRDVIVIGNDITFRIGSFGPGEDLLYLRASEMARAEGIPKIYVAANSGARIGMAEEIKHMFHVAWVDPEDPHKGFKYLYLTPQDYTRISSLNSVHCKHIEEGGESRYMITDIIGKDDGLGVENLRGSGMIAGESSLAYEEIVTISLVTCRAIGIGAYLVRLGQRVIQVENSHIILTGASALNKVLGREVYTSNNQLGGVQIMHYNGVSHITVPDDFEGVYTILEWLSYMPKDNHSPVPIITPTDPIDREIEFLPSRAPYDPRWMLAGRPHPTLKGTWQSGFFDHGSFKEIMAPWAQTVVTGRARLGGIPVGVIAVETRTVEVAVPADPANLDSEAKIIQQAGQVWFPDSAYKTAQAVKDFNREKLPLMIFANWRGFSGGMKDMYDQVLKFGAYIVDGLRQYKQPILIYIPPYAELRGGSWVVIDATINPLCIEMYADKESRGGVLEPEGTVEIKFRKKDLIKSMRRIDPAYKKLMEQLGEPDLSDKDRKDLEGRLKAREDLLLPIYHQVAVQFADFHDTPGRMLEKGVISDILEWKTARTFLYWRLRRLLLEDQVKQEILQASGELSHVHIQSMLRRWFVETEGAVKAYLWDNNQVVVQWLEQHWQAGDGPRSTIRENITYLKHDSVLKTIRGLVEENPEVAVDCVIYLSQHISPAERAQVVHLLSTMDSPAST
Assay: ACC2 assay (spectrophotometric 384 well assay, NADH-linked kinetic method)
Format: biochemical
Settings: hACC2 construct lacking 128 N-terminal amino acids; coupled lactate dehydrogenase/pyruvate kinase reaction, 340 nm, 25° C.
List of log10 IC50 values.
A value of 2 here means IC50 of 100 in nM, since values are log10.

Some solved entries appear below for comparison.
COMPOUND: CCN(CC)c1ncc(C#N)c(N2CC[C@@H](Oc3ccc([C@H](C)NC(C)=O)cc3)C2)n1
TESTED_ON: human ACC2 (Homo sapiens (Human), UniProt O00763)
log10 IC50: 2.92

COMPOUND: CCN(CCC#N)c1ncnc(N2CC[C@@H](Oc3ccc([C@H](C)NC(C)=O)cc3)C2)c1Cl
TESTED_ON: human ACC2 (Homo sapiens (Human), UniProt O00763)
log10 IC50: 2.67

COMPOUND: CC(=O)N[C@@H](C)c1ccc(O[C@@H]2CCN(c3nc(N(C)CCC#N)ncc3F)C2)cc1
TESTED_ON: human ACC2 (Homo sapiens (Human), UniProt O00763)
log10 IC50: 2.87

COMPOUND: CC(=O)N[C@@H](C)c1ccc(O[C@@H]2CCN(c3ncnc(OCC4CC4)c3C)C2)cc1
TESTED_ON: human ACC2 (Homo sapiens (Human), UniProt O00763)
log10 IC50: 1.83

COMPOUND: CC(=O)N[C@@H](C)c1ccc(O[C@@H]2CCN(c3ncnc(OC4CCCC4)c3F)C2)cc1
TESTED_ON: human ACC2 (Homo sapiens (Human), UniProt O00763)
log10 IC50: 1.76

COMPOUND: CC(=O)N[C@@H](C)c1ccc(O[C@@H]2CCN(c3ccnc(N4CCSCC4)n3)C2)cc1
TESTED_ON: human ACC2 (Homo sapiens (Human), UniProt O00763)
log10 IC50: 2.02

COMPOUND: CC(=O)N[C@@H](C)c1ccc(O[C@@H]2CCN(c3ccnc(N4CCOCC4(C)C)n3)C2)cc1
TESTED_ON: human ACC2 (Homo sapiens (Human), UniProt O00763)
log10 IC50: 2.83

COMPOUND: CC(=O)N[C@@H](C)c1ccc(O[C@@H]2CCN(c3ncnc(NCC4CCCO4)c3Cl)C2)cc1 (stereo partly shown)
TESTED_ON: human ACC2 (Homo sapiens (Human), UniProt O00763)
log10 IC50: 2.49

What value of log10 IC50 on human ACC2 (Homo sapiens (Human), UniProt O00763) does CC(=O)N[C@@H](C)c1ccc(O[C@@H]2CCN(c3nc(N(C)C4CCCOC4)ncc3Cl)C2)cc1 (stereo partly shown) have?
2.48

Give human ACC2 (Homo sapiens (Human), UniProt O00763) log10 IC50 for CC(=O)N[C@@H](C)c1ccc(O[C@@H]2CCN(c3nc(N(C)CC4CCOC4)ncc3Br)C2)cc1 (stereo partly shown)
2.39

----------
Listed next: entries and their corresponding pIC50.
Biological target: human ACC2 (Homo sapiens (Human))
Test: ACC2 assay (spectrophotometric 384 well assay, NADH-linked kinetic method)
Type: biochemical
Conditions: hACC2 construct lacking 128 N-terminal amino acids; coupled lactate dehydrogenase/pyruvate kinase reaction, 340 nm, 25° C.
In plain terms, pIC50 is the concentration in mol/L turned into minus its base-10 logarithm.

Record excerpt, results attached:
COMPOUND: COCCCN(C)c1nccc(N2CC[C@@H](Oc3ccc([C@H](C)NC(C)=O)cc3)C2)n1 [Example 8.242]
pIC50: 6.34
--
COMPOUND: CCC(C)Nc1ncnc(N2CC[C@@H](Oc3ccc([C@H](C)NC(C)=O)cc3)C2)c1Cl (some centres unmarked) [Example 8.314]
pIC50: 6.46
--
COMPOUND: COCCN(C)c1ncnc(N2CC[C@@H](Oc3ccc([C@H](C)NC(C)=O)cc3)C2)c1F [Example 8.134]
pIC50: 6.68

Look at this compound and give its reported pIC50. CC(=O)N[C@@H](C)c1ccc(O[C@@H]2CCN(c3nc(N(C)CC(C)C)ncc3F)C2)cc1 [Example 8.164]
6.99

So what does the record say about pIC50 for CC(=O)N[C@@H](C)c1ccc(O[C@@H]2CCN(c3ccnc(N4CCC(F)(F)CC4)n3)C2)cc1 [Example 8.207] ?
7.00

----------
// reported pIC50 per item
Biological target: UniProt:O00763
Assay: ACC2 assay (spectrophotometric 384 well assay, NADH-linked kinetic method)
Type: biochemical
Details: hACC2 construct lacking 128 N-terminal amino acids; coupled lactate dehydrogenase/pyruvate kinase reaction, 340 nm, 25° C.
Reminder that pIC50 means the negative base-10 logarithm of the concentration expressed in mol/L.

MOLECULE: CC(=O)N[C@@H](C)c1ccc(O[C@@H]2CCN(c3ccnc(N4CC(C)(C)C4)n3)C2)cc1 [Example 8.73]
TESTED_ON: UniProt:O00763
ENDPOINT_NAME: pIC50
REPORTED_RESULT: 5.98
--
MOLECULE: CC(=O)N[C@@H](C)c1ccc(O[C@@H]2CCN(c3cc(N(C)CC4CC4)ncn3)C2)cc1 [Example 8.2]
TESTED_ON: UniProt:O00763
ENDPOINT_NAME: pIC50
REPORTED_RESULT: 6.37
--
MOLECULE: CCOc1ncnc(N2CC[C@@H](Oc3ccc([C@H](C)NC(C)=O)cc3)C2)c1OC [Example 7.44]
TESTED_ON: UniProt:O00763
ENDPOINT_NAME: pIC50
REPORTED_RESULT: 6.56
--
MOLECULE: CC(=O)N[C@@H](C)c1ccc(O[C@@H]2CCN(c3ncnc(N4CCC(C)(C)C4)c3F)C2)cc1 [Example 8.199]
TESTED_ON: UniProt:O00763
ENDPOINT_NAME: pIC50
REPORTED_RESULT: 7.07

Next, consider the following molecule.
# lookup: pIC50 of CC(=O)N[C@@H](C)c1ccc(O[C@@H]2CCN(c3nc(N(C)C[C@@H]4CCCO4)ncc3F)C2)cc1 [Example 8.165]
7.12

----------
Biological target: human ACC2 (Homo sapiens (Human), UniProt O00763)
Assay: ACC2 assay (spectrophotometric 384 well assay, NADH-linked kinetic method)
Format: biochemical
Details: hACC2 construct lacking 128 N-terminal amino acids; coupled lactate dehydrogenase/pyruvate kinase reaction, 340 nm, 25° C.
Experimental: Spectrophotometric 384 Well Assay Malonyl CoA formation by acetyl CoA carboxylases is stoichometrically linked to the consumption of ATP. ACC2 activity is measured in a NADH-linked kinetic method measuring ADP generated during the ACC reaction using a coupled lactate dehydrogenase/pyruvate kinase reaction. The protein is then expressed in insect cells using a baculoviral expression system. Protein purification is performed by anion exchange. […]
ENDPOINT_NAME: pIC50
Expect pIC50 as a plain number equal to -log10 of the molar concentration.

COMPOUND: CC(=O)N[C@@H](C)c1ccc(O[C@@H]2CCN(c3ncc(OCC4CCC4)cn3)C2)cc1
REPORTED_RESULT: 6.96

So what does the record say about pIC50 for COc1c(OC2CCCC2)ncnc1N1CC[C@@H](Oc2ccc([C@H](C)NC(C)=O)cc2)C1 ?
7.16

Fill blank: measured pIC50 of the compound CC(=O)N[C@@H](C)c1ccc(O[C@@H]2CCN(c3nc(N4CCOC(C(F)(F)F)C4)ncc3F)C2)cc1 (some centres unmarked) is ____.
6.92

----------
Molecular target: UniProt O00763
Test: ACC2 assay (spectrophotometric 384 well assay, NADH-linked kinetic method)
Type: biochemical
Conditions: hACC2 construct lacking 128 N-terminal amino acids; coupled lactate dehydrogenase/pyruvate kinase reaction, 340 nm, 25° C.
Quick reference: IC50 of the listed items.

Previously resolved entries follow.
MOLECULE: CCCN(C)c1nccc(N2CC[C@@H](Oc3ccc([C@H](C)NC(C)=O)cc3)C2)n1
IC50: 102 nM
--
MOLECULE: CC(=O)N[C@@H](C)c1ccc(O[C@@H]2CCN(c3ncc(OC(C)C)cn3)C2)cc1
IC50: 830 nM
--
MOLECULE: CC(=O)N[C@@H](C)c1ccc(O[C@@H]2CCN(c3ccnc(N4CCC(C)(C)C4)n3)C2)cc1
IC50: 260 nM
--
MOLECULE: CC(=O)N[C@@H](C)c1ccc(O[C@@H]2CCN(c3ncnc(C4CCC4)c3F)C2)cc1
IC50: 342 nM
--
MOLECULE: C[C@H](NC(=O)N1CCOCC1)c1ccc(OC2CCN(c3ncnc(OCC4CC4)c3F)C2)cc1 (some centres unmarked)
IC50: 203 nM
--
MOLECULE: CCCOc1ccnc(N2CC[C@@H](Oc3ccc([C@H](C)NC(C)=O)cc3)C2)n1
IC50: 2090 nM

What measured IC50 goes with CCC(=O)Nc1nc(C)c(C(=O)N[C@@H](C)c2ccc(O[C@@H]3CCN(c4ncnc(NCC5CC5)c4Cl)C3)cc2)s1 ?
94 nM

Can you look up the measured IC50 of CC(=O)N[C@@H](C)c1ccc(O[C@@H]2CCN(c3ccnc(N4CC[C@H](F)C4)n3)C2)cc1 [Example 8.265] for me?
379 nM

Given CC(=O)N[C@@H](C)c1ccc(O[C@@H]2CCN(c3ccnc(N(CCC#N)CC4CCCO4)n3)C2)cc1 (some centres unmarked) , state its recorded IC50.
234 nM

Using the record for COC1CCN(c2nccc(N3CC[C@@H](Oc4ccc([C@H](C)NC(C)=O)cc4)C3)n2)CC1 , report its IC50.
641 nM

Tell me the measured IC50 of CC(=O)N[C@@H](C)c1ccc(O[C@@H]2CCN(c3ncnc(N4CC(F)(F)C(F)(F)C4)c3F)C2)cc1 , please.
127 nM

What value of IC50 has been recorded for this entry: CC(=O)N[C@@H](C)c1ccc(OC2CCN(c3cnc(OC4CCC4)nc3)C2)cc1 (some centres unmarked)
565 nM

Request the reported IC50 associated with CC(=O)N[C@@H](C)c1ccc(O[C@@H]2CCN(c3ncnc(N4CCC(CO)C4)c3F)C2)cc1 (some centres unmarked) [Example 8.202]
721 nM

# query: IC50 of entry CC(=O)N[C@@H](C)c1ccc(O[C@@H]2CCN(c3nc(N(C)C4CCCC4)ncc3Cl)C2)cc1
111 nM
